Test system: Plasmodium berghei
test_details: Screen against P. berghei liver stage (PbLuc), transformed with Luciferase, at 10uM
Assay type: functional, HepG2
experimental_setup: tested at 10 uM
In all, about 69,000 compounds went through this assay and about 8,600 (12%) showed an effect of 50% or more. For the sample, strong results were picked, then their nearest neighbours and some compounds at random.
INHIBITION under 20% gets 1, anything at or over 20% gets -1.

- compound: "CCS(=O)(=O)CCN(C)C(=O)NC(C)c1ccc(C)s1 (configuration not stated)"
  discrete_label: -1
- compound: "c1ccc(COc2cccc(CNC3CCc4ncnn4C3)c2)cc1 (configuration not stated)"
  discrete_label: -1
- compound: "CCNc1nc(C)c(C(=O)N(C)Cc2nc(CC)no2)s1"
  discrete_label: -1
- compound: "Cc1c(F)cccc1S(=O)(=O)Nc1noc(C(C)C)n1"
  discrete_label: 1
- compound: "CCc1nc(NS(=O)(=O)c2cc(C)cc(F)c2)no1"
  discrete_label: -1
- compound: "Cc1ccc(-c2nnn(CCN3C(=O)CCC3=O)n2)cc1"
  discrete_label: 1
- compound: "Cc1ccc(OCCN(C)Cc2nc3c(cnn3C)c(=O)[nH]2)cc1"
  discrete_label: -1
- compound: "CCc1nc(NS(=O)(=O)c2cccc(F)c2C)no1"
  discrete_label: -1

Please state whether INHIBITION is below 20% for "CCNc1nc(C(=O)N(C)Cc2nc(CC)no2)cs1" -1

# repeat for "COc1cc2cc3c(nc2cc1OC)OCCN(Cc1ccco1)C3" 1

How about "N#CC1(C(=O)NCc2ccc(F)cc2)CCCC1" ? 1

Request: "CCOc1cc(C(=O)n2cccn2)cc(OCC)c1OCC" 1

* * *

System: Plasmodium berghei
test_details: Screen against P. berghei liver stage (PbLuc), transformed with Luciferase, at 10uM
Assay type: functional, HepG2
experimental_setup: tested at 10 uM
In all, about 69,000 compounds went through this assay and about 8,600 (12%) showed an effect of 50% or more. The entries come from a sample that favours strong results as a whole.
# Lookup of reported INHIBITION keyed by entry
# unit: % | format: bare number

- compound: "CCn1cc(CN2CCC(O)(Cn3nc(C)ccc3=O)CC2)cn1"
  INHIBITION (%): 6.32
- compound: "CC(C)Nc1nc2c(c(NC3CC3)n1)CCN(C1CCOCC1)CC2"
  INHIBITION (%): 23.1
- compound: "CC(CCN1CCC(n2cc(CCO)nn2)CC1)c1ccccc1 (stereo unspecified)"
  INHIBITION (%): 24.9

# INHIBITION lookup, item "CCn1cc(CN2C[C@@H]3CC[C@H]2CN(C(=O)c2cnccn2)C3)cn1" 21.5

Entry to check: CNCc1cn(C2CCN(CCC(C)c3ccccc3)CC2)nn1 (stereo unspecified) 3.06

Same read-out for "CC(C)N(C)Cc1noc2c1CN(C(=O)c1ccsc1)CC2" ? -18.5

* * *

Listing: INHIBITION of selected compounds
System: Plasmodium berghei
test_details: Screen against P. berghei liver stage (PbLuc), transformed with Luciferase, at 10uM
Assay type: functional, HepG2
experimental_setup: tested at 10 uM
The whole screen tested about 69,000 compounds, of which about 8,600 (12%) showed an effect of 50% or more. The list comes from a sample in which strong results are over-represented; it also holds close analogues and randomly drawn compounds.
Your answer is read as %, so omit the unit and give the number.

# example entries with known answers
- compound: "O=C(CCC1CCN(Cc2ccncc2)CC1)Nc1ccccc1Cl"
  INHIBITION, %: 70.1
- compound: "COCCn1ccc(NCc2sccc2C)n1"
  INHIBITION, %: -60.1
- compound: "COc1ccc(Cl)cc1CN(CC(N)=O)C(C)C"
  INHIBITION, %: -6.04
- compound: "CC(C)CC(CO)NS(=O)(=O)Cc1ccon1 (stereo not given)"
  INHIBITION, %: 23.8
- compound: "CC(C)N[C@@H]1CO[C@H](CNC(=O)c2ccccc2)[C@H]1O"
  INHIBITION, %: -6.23

// query INHIBITION value for entry "CCn1cc(CN2CCC(CCC(=O)Nc3ccccc3Cl)CC2)cn1" 49.5

Same for "CC(C)NC(=O)NC[C@H]1OC[C@@H](NCc2ccccc2O)[C@@H]1O" 4.59

Same question, CC(=O)N1CCCC(C(=O)NCCOc2cc(C)cc(C)c2)C1 (stereo not given) this time -33.7

Try this compound next: "CC(C)N[C@@H]1CO[C@H](CNC(=O)Nc2ccccc2)[C@H]1O" 50.2

The reported numbers originate from ChEMBL document CHEMBL4513216.
